Recorded measurements of growth, one per entry
test system: UO-31 renal; assay: NCI-60 one-dose screen, 48 h (100 = growth as untreated, 0 = no growth, -100 = all killed); details: 10 µM unless noted
This is part of a sample that, as a whole, favours compounds with a hit. Of some 83,000 tested, about 20% had one in any assay.
Field format: number, assumed %, no unit text.

1) Cc1cn(-c2cc(C(=O)Nc3cccc(-n4ccc5c(NC(=O)c6ccccc6)nccc54)c3)cc(C(F)(F)F)c2)cn1	15.5
2) COc1ccccc1P(c1ccccc1OC)c1ccccc1OC	86.1
3) CN1C(=O)C2(NN=C(c3cccc4ccccc34)S2)c2ccccc21 (stereo unspecified)	18.5
4) Cc1nc(-c2ccc(Cl)cc2)ccc1NC(=O)Nc1cccc(C(F)(F)F)c1	90.8
5) S=c1ssnc1-c1ccccn1	-40.8
6) O=S(=O)(Nc1cccc2cc(OS(=O)(=O)c3ccccc3)ccc12)c1ccccc1	59.7

Which growth value belongs to O=[N+]([O-])c1cccc(C(c2ccccc2)c2ccccc2)c1 ? 75.7

Report growth for O=C(Nc1cccc([N+](=O)[O-])c1)Nc1cccc([N+](=O)[O-])c1 please. 46.6

What does the data say about its growth? Entry: C=C1C(=O)O[C@H]2[C@H]1CC/C(C(=O)NCCOCCOCC(=O)Nc1ccc(OC)c(C(N)=O)c1O)=C\CC[C@@]1(C)O[C@@H]21 87.3
